# target or test system: L-type voltage-dependent Ca2+ channel (Homo sapiens, UniProt O60840+Q01668+Q13698+Q13936)
# procedure text: Inhibition of L-type voltage-dependent Ca2+ channel at 1 uM
quantity name: inhibition at 1 µM (%)

compound | inhibition at 1 µM / %
CCOc1ccc(C2C(C(=O)OC)=C(C)NC(C)=C2C(=O)OC)cc1OC | 22.6
CCOC(=O)C1=C(C)NC(C)=C(C(=O)OCC)C1c1ccc(C)cc1 | 29.4
C=CCOC(=O)C1=C(C)NC(C)=C(C(=O)OCC=C)C1c1ccc(OC)cc1 | 37.2
CC1=C(C(=O)OCc2ccccc2)C(c2ccc(Cl)cc2)C(C(=O)OCc2ccccc2)=C(C)N1 | 92.9
CCOC(=O)C1=C(C)NC(C)=C(C(=O)OC)C1c1cc(Cl)cc(Cl)c1OC (stereo not given) | 100

(A) COCCOC(=O)C1=C(C)NC(C)=C(C(=O)OCCOC)C1c1cccc([N+](=O)[O-])c1
(B) COC(=O)C1=C(C)NC(C)=C(C(=O)OC)C1c1ccc(OC)c([N+](=O)[O-])c1
Q: // pick larger inhibition at 1 µM from pair: A vs B Which one? Tell me its label.
A: A

(a) CC1=C(C(=O)OC(C)C)C(c2ccc(F)cc2)C(C(=O)OC(C)C)=C(C)N1
(b) C=CCOC(=O)C1=C(C)NC(C)=C(C(=O)OCC=C)C1/C=C/c1ccccc1OC
(c) C=CCOC(=O)C1=C(C)NC(C)=C(C(=O)OCC=C)C1c1ccc(C)cc1
(d) CCCCOc1ccc(C2C(C(=O)OCC)=C(C)NC(C)=C2C(=O)OCC)cc1
(e) CCOC(=O)C1=C(C)NC(C)=C(C(=O)OCC)C1c1ccc(C(C)C)cc1
Q: Please rank these compounds by inhibition at 1 µM in descending order. Form entry: labels listed in requested order.
A: a, c, e, b, d
(a: 96.8%, c: 55.7%, e: 30.8%, b: 18%, d: 9.6%)
